Biological target: Cytochrome P450 3A4 (Homo sapiens)
Assay: Cytochrome panel assay with activity outcomes
Details: recombinant CYP, pro-luciferin dealkylation, luminescence, p450-cyp3a4; series mostly up to 57.1 µM
About 5,100 (32%) of roughly 16,000 compounds were called active. Inconclusive results (about 25%) are left out. Calls follow the shape of the dose curve; as a rule, active = well fitted curve in the direction sought with a large enough effect; inconclusive = small, poorly fitted or top-dose-only effect, or effect the other way; inactive = no such curve, though single readings can be large or run the other way. The list shows a part of the results.
Possible outcomes: active, inactive

{"molecule": "Cc1ccc(CNC(=O)Cc2csc(Nc3nc(=S)[nH]c4ccccc34)n2)cc1", "assigned_category": "active"}
{"molecule": "Cc1cc(C(=O)O)c(=O)[nH]c1C", "assigned_category": "inactive"}
{"molecule": "C#CCCCO/N=C1/C[C@@H](O)[C@@H](O)[C@@H]2[C@@H]3C(=O)N([C@@H](C)c4ccccc4)C(=O)[C@H]3CC[C@H]12", "assigned_category": "active"}
{"molecule": "Cc1cccc(CNc2nc(-c3cccc(NS(C)(=O)=O)c3)nc3ccccc23)c1", "assigned_category": "active"}
{"molecule": "CS(=O)(=O)Nc1cccc(-c2nc(NCc3cccs3)c3ccccc3n2)c1", "assigned_category": "active"}
{"molecule": "C#CCCCO/N=C1/C[C@@H](O)[C@@H](O)[C@@H]2[C@@H]3C(=O)N(Cc4ccccc4)C(=O)[C@H]3CC[C@H]12", "assigned_category": "active"}
{"molecule": "COCCNc1nc(-c2cccc(NS(C)(=O)=O)c2)nc2ccccc12", "assigned_category": "active"}
{"molecule": "CCCCC1CC(/C(C)=N/NC(N)=O)OC1=O (stereo not given)", "assigned_category": "inactive"}
{"molecule": "COc1ccc(CNC(=O)Cc2csc(Nc3nc(=S)[nH]c4ccccc34)n2)cc1", "assigned_category": "active"}
{"molecule": "O=C(O)[C@H]1CCCN(CCC=C(c2ccccc2)c2ccccc2)C1", "assigned_category": "inactive"}

----------
Biological target: Cytochrome P450 3A4 (Homo sapiens) (UniProt P08684)
Sequence (P08684 whole entry, looked up): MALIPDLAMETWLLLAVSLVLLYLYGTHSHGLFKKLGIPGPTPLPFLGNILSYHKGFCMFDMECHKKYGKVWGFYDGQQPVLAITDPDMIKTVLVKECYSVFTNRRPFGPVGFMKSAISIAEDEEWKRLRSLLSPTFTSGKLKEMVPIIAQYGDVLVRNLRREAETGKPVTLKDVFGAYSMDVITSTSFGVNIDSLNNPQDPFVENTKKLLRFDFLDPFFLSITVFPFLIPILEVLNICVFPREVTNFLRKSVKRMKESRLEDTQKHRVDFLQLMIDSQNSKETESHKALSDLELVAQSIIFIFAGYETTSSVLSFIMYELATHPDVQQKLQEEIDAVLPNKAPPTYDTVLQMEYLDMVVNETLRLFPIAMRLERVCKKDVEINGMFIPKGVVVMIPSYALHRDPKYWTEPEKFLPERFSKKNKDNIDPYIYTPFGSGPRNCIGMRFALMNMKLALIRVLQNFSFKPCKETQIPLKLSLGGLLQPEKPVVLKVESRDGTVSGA
Assay: Cytochrome panel assay with activity outcomes
Conditions: recombinant CYP, pro-luciferin dealkylation, luminescence, p450-cyp3a4; series mostly up to 57.1 µM
Hit rate of the full screen: of about 16,000 compounds, about 5,100 (32%) were called active. Roughly 25% stayed inconclusive and do not appear here. Calls come from the whole dose curve; as a rule, active = well fitted curve in the direction sought with a large enough effect; inconclusive = small, poorly fitted or top-dose-only effect, or effect the other way; inactive = no such curve, though single readings can be large or run the other way. This is one part of the list.
Possible outcomes: true (1) (active), false (0) (inactive)

{"compound": "COc1ccc2nc(N3C(=O)CC(Cc4ccc(Cl)cc4)C3=O)sc2c1 (stereo unspecified)", "target_under_test": "Cytochrome P450 3A4 (Homo sapiens) (UniProt P08684)", "assigned_category": "false (0)"}
{"compound": "C=C(C)c1cccc(C(C)(C)NC(=O)Nc2cc(C)ccc2OC)c1", "target_under_test": "Cytochrome P450 3A4 (Homo sapiens) (UniProt P08684)", "assigned_category": "true (1)"}
{"compound": "O=C(c1csnn1)N1CCC2(CCCN(c3ccccc3)C2)CC1", "target_under_test": "Cytochrome P450 3A4 (Homo sapiens) (UniProt P08684)", "assigned_category": "true (1)"}
{"compound": "CCC(C)(C(=O)NC1CCCC1)N(CC1CCCO1)C(=O)c1ccc2c(c1)OCO2 (stereo unspecified)", "target_under_test": "Cytochrome P450 3A4 (Homo sapiens) (UniProt P08684)", "assigned_category": "true (1)"}
{"compound": "COc1ccc(C(N)=O)cc1NC(=O)c1cccc(F)c1", "target_under_test": "Cytochrome P450 3A4 (Homo sapiens) (UniProt P08684)", "assigned_category": "false (0)"}
{"compound": "CC(=O)N[C@@H](C(=O)O)C(C)(C)SN=O", "target_under_test": "Cytochrome P450 3A4 (Homo sapiens) (UniProt P08684)", "assigned_category": "false (0)"}
{"compound": "COc1ccc(CN2CN(c3ccc(Cl)cc3)C(=O)N(n3cnnc3)C2)cc1", "target_under_test": "Cytochrome P450 3A4 (Homo sapiens) (UniProt P08684)", "assigned_category": "true (1)"}
{"compound": "O=C(c1csnn1)N1CCC2(CCCN(c3ccc(-c4ccccc4)cc3)C2)CC1", "target_under_test": "Cytochrome P450 3A4 (Homo sapiens) (UniProt P08684)", "assigned_category": "true (1)"}
{"compound": "O=C1Nc2ccccc2/C1=N/c1sc2c(c1C(=O)NCCc1ccccc1)CCCC2", "target_under_test": "Cytochrome P450 3A4 (Homo sapiens) (UniProt P08684)", "assigned_category": "true (1)"}
{"compound": "O=C(c1csnn1)N1CCC2(CC1)CN(c1ccccc1)C2", "target_under_test": "Cytochrome P450 3A4 (Homo sapiens) (UniProt P08684)", "assigned_category": "false (0)"}
{"compound": "CSc1nc(Cl)cc(N(CCO)CCO)n1", "target_under_test": "Cytochrome P450 3A4 (Homo sapiens) (UniProt P08684)", "assigned_category": "false (0)"}

----------
Target: Cytochrome P450 3A4 (Homo sapiens) (UniProt P08684)
Test: Cytochrome panel assay with activity outcomes
Conditions: recombinant CYP, pro-luciferin dealkylation, luminescence, p450-cyp3a4; series mostly up to 57.1 µM
The whole screen tested about 16,000 compounds, of which about 5,100 (32%) were called active. About 25% were inconclusive and are not listed. Some of the results follow.
test_readout: AC50

{"molecule": "CC1CCCC(C)N1C(=O)C1CC(c2ccc(F)cc2)=NO1 (stereo unspecified)", "test_readout": "AC50", "result": "11.2 µM (active)"}
{"molecule": "Cn1c(=O)n(-c2ccc(Cl)cc2)c(=O)c2c3c(sc21)COC(C)(C)C3", "test_readout": "AC50", "result": "inactive"}
{"molecule": "Cc1cc(C)n(-c2cc(N3CCN(S(=O)(=O)c4ccc(C)c(C)c4)CC3)ccc2[N+](=O)[O-])n1", "test_readout": "AC50", "result": "3.16 µM (active)"}
{"molecule": "CCn1ccc(C(=O)Oc2ccc(Cl)cc2)n1", "test_readout": "AC50", "result": "inactive"}
{"molecule": "CCC/C=C(\\CCC)C(NS(=O)(=O)CC12CCC(CC1=O)C2(C)C)c1ccc(C(=O)OC)cc1 (stereo unspecified)", "test_readout": "AC50", "result": "3.98 µM (active)"}
{"molecule": "CCCc1nnc(NC(=O)CN2C(=O)C3C4C=CC(C4)C3C2=O)s1 (stereo unspecified)", "test_readout": "AC50", "result": "12.6 µM (active)"}
{"molecule": "COCCNc1ncnc2ccc(-c3cccc(NS(C)(=O)=O)c3)cc12", "test_readout": "AC50", "result": "15.8 µM (active)"}
{"molecule": "CC(C)Cn1c(-c2nn(C)cc2Cl)n[nH]c1=S", "test_readout": "AC50", "result": "inactive"}
{"molecule": "N#Cc1c(-c2ccc3c(c2)OCO3)ccn2nc(-c3cccc(C(F)(F)F)c3)nc12", "test_readout": "AC50", "result": "inactive"}
{"molecule": "CCc1cc(C(=O)OC)c(NC(=O)CCCC(=O)O)s1", "test_readout": "AC50", "result": "inactive"}
{"molecule": "N#Cc1cccc(-c2cc(-n3ccnc3)ncn2)c1", "test_readout": "AC50", "result": "0.398 µM (active)"}
{"molecule": "c1ccc2c3c([nH]c2c1)[C@@H]1[C@H]2CC[C@H]([C@H]4CCCN[C@H]42)N1CC3", "test_readout": "AC50", "result": "inactive"}
{"molecule": "N#Cc1cccc(-c2nccc(-n3ccnc3)n2)c1", "test_readout": "AC50", "result": "2.51 µM (active)"}
{"molecule": "O=C(O)c1c2ccccc2cc2ccccc12", "test_readout": "AC50", "result": "inactive"}
{"molecule": "Cc1ccc(C(=O)NCCNc2ccc(Cl)cc2[N+](=O)[O-])o1", "test_readout": "AC50", "result": "6.31 µM (active)"}
{"molecule": "CCN(CC(=O)NCc1cccs1)S(=O)(=O)c1ccc(C(C)C)cc1", "test_readout": "AC50", "result": "7.08 µM (active)"}
{"molecule": "Cc1c(NC(=O)C(C)N2C(=O)c3ccccc3C2=O)c(=O)n(-c2ccccc2)n1C (stereo unspecified)", "test_readout": "AC50", "result": "inactive"}
{"molecule": "CN(C)CC[C@H](c1ccc(Cl)cc1)c1ccccn1", "test_readout": "AC50", "result": "inactive"}
{"molecule": "CCC/C=C(\\CCC)C(NS(=O)(=O)c1ccc(Cl)cc1)c1ccccc1 (stereo unspecified)", "test_readout": "AC50", "result": "7.94 µM (active)"}
{"molecule": "Cc1cccc(CNc2ccnc(-c3cccnc3)n2)c1", "test_readout": "AC50", "result": "0.501 µM (active)"}
{"molecule": "COc1ccc(-c2cc(-c3c(O)c(OC)c4occc4c3OC)[nH]n2)cc1OC", "test_readout": "AC50", "result": "7.94 µM (active)"}
{"molecule": "Cc1cccc(NC(=O)c2cc(N3C(=O)CCC3=O)ccc2Cl)n1", "test_readout": "AC50", "result": "inactive"}
{"molecule": "O=[N+]([O-])c1ccc(N2CCCC2)cc1N1CCCC1", "test_readout": "AC50", "result": "inactive"}
{"molecule": "Cc1ccc(C2NC(c3ccc(C)cc3)C(C)C(=NO)C2C)cc1 (stereo unspecified)", "test_readout": "AC50", "result": "14.1 µM (active)"}
{"molecule": "NC(=S)Nc1cc2ccccc2c2ccccc12", "test_readout": "AC50", "result": "15.8 µM (active)"}
{"molecule": "CS(=O)(=O)N1CCN(c2c(Cl)cccc2[N+](=O)[O-])CC1", "test_readout": "AC50", "result": "inactive"}
{"molecule": "O=[N+]([O-])c1cccnc1NCCNc1ncc(C(F)(F)F)cc1Cl", "test_readout": "AC50", "result": "12.6 µM (active)"}
{"molecule": "Cc1cc(C(=O)Nc2c(C)n(C)n(-c3ccccc3)c2=O)c2ccccc2n1", "test_readout": "AC50", "result": "inactive"}
{"molecule": "O=C1C(O)=C(O)C(=O)C(O)=C1O", "test_readout": "AC50", "result": "inactive"}
{"molecule": "COc1cccc(Nc2ncc(C(=O)O)c3ccccc23)c1", "test_readout": "AC50", "result": "inactive"}
{"molecule": "CCCN(CCC)C(=S)NC(=O)c1ccc(Cl)cc1Cl", "test_readout": "AC50", "result": "14.1 µM (active)"}
{"molecule": "COCCCNC(=O)/C=C/c1ccc(Cl)cc1", "test_readout": "AC50", "result": "inactive"}
{"molecule": "CCOC(=O)c1c(NC(=O)CCCN2CCOCC2)sc2c1CC(C)(C)OC2", "test_readout": "AC50", "result": "7.08 µM (active)"}
{"molecule": "CNc1cnn(-c2ccccc2)c(=O)c1Cl", "test_readout": "AC50", "result": "inactive"}
{"molecule": "CCOC(=O)c1cc(CC)sc1NC(=O)c1cc(OCC)c(OCC)c(OCC)c1", "test_readout": "AC50", "result": "22.4 µM (active)"}
{"molecule": "CN(C)c1ccc(-c2nc(Nc3ccncc3)c3ccccc3n2)cc1", "test_readout": "AC50", "result": "7.94 µM (active)"}
{"molecule": "CN(C)C(=O)c1ccc(-c2ccc3ncnc(NC4CCNCC4)c3c2)cc1", "test_readout": "AC50", "result": "inactive"}
{"molecule": "Cn1cc(C2=C(c3ccc(Cl)cc3Cl)C(=O)NC2=O)c2ccccc21", "test_readout": "AC50", "result": "2.51 µM (active)"}
{"molecule": "CCC/C=C(\\CCC)C(NS(=O)(=O)c1ccc(Cl)cc1)c1ccc(C(=O)OC)cc1 (stereo unspecified)", "test_readout": "AC50", "result": "3.98 µM (active)"}
{"molecule": "CC(C)(C)c1ccc(C(=O)NCCC(=O)NCc2ccco2)cc1", "test_readout": "AC50", "result": "14.1 µM (active)"}
{"molecule": "C=CCNc1cnn(-c2ccc(C)cc2)c(=O)c1Cl", "test_readout": "AC50", "result": "4.47 µM (active)"}
{"molecule": "O=C(Nc1ccc(N=Nc2ccccc2)cc1)c1ccc(Cl)cc1Cl", "test_readout": "AC50", "result": "inactive"}
{"molecule": "O=C(Nc1ccnc(-c2cccnc2)n1)c1cccc(Cl)c1Cl", "test_readout": "AC50", "result": "4.47 µM (active)"}
{"molecule": "O=C(O)CSc1cc(C(F)(F)F)nc(-c2ccccn2)n1", "test_readout": "AC50", "result": "inactive"}
{"molecule": "CC(=O)Nc1ccnc(-c2cccnc2)n1", "test_readout": "AC50", "result": "inactive"}
{"molecule": "CN(C)c1ccc(-c2ccc3ncnc(NC4CC4)c3c2)cc1", "test_readout": "AC50", "result": "3.16 µM (active)"}

Where these numbers come from: PubChem BioAssay AID1851
